measured-endpoint: melting point (°C)

These recorded examples may help you get a feel for the data.
[[record]]
molecule = "CCCCOc1ccc(N=Nc2ccc(N)nc2N)cn1"
data_value = 129

[[record]]
molecule = "Clc1ccc(C(Cn2ccnc2)OCc2csc3c(Cl)cccc23)c(Cl)c1 (stereo unspecified)"
data_value = 146


[a] Cc1cc(C(C)(C)C)c(O)c(C(C)(C)C)c1
[b] CC(C)N(C1=NC(=Cc2ccccc2)C(=O)N1c1ccccc1)C(C)C
I would appreciate it if you could say which entry, a or b , has the lower melting point value. Give the chosen item's label as your response.
a

* * *

measured-endpoint: melting point (°C)

Previously resolved entries follow.
[[record]]
molecule = "O=C1NC(=O)C(=Cc2ccc(-c3ccc(Br)cc3)o2)C(=O)N1"
measured_endpoint = "melting point"
data_value = 255

[[record]]
molecule = "CCCCCCCCCCCCCCCCCCOC(=O)CCc1cc(C(C)(C)C)c(O)c(C(C)(C)C)c1"
measured_endpoint = "melting point"
data_value = 52.5

[[record]]
molecule = "COc1ccc(OC)c(F)c1"
measured_endpoint = "melting point"
data_value = 25

[[record]]
molecule = "CCOC(=O)c1cccnc1-c1ncccc1C(=O)OCC"
measured_endpoint = "melting point"
data_value = 90

[[record]]
molecule = "CC(Cc1ccccc1)NC(C#N)c1ccccc1 (centres undefined)"
measured_endpoint = "melting point"
data_value = 85

[[record]]
molecule = "NC1CCCCCCC1"
measured_endpoint = "melting point"
data_value = -48

[[record]]
molecule = "N#CCCN(CCO)c1ccc(N=Nc2ccc([N+](=O)[O-])cc2Cl)cc1"
measured_endpoint = "melting point"
data_value = 157

[[record]]
molecule = "Cc1ccc(C(=O)C2=NOC3C(=O)N(c4cc(Cl)ccc4Cl)C(=O)C23)cc1 (centres undefined)"
measured_endpoint = "melting point"
data_value = 191


[A] CC(=O)c1cccc(C(C)=O)n1
[B] COc1ccc(-c2cc(=O)c3c(O)cc(O)cc3o2)cc1O
# query: argmin of melting point over A and B Record your answer as the label of the chosen record.
A
